# TARGET SYSTEM: T1, RSV F ectodomain stabilized in the postfusion conformation (F ΔFP), subtype A (Respiratory syncytial virus subtype A, UniProt P03420 26-109; P03420 147-524)
# T1 construct: extracellular domain; trimer; also called Postfusion subtype A; Postfusion RSV F
# ASSAY INFO: BLI, IgG on AHQ sensors, 100 nM antigen
MEASURED PARAMETER: pKd
Note on units: pKd is unitless, being -log10 of a concentration expressed in mol/L.

Suppose we examine the binder ADI-14526 (antibody, V domains shown, IgG; also called Antibody Number 86) VH: EVQLVESGPGLVRPSQTLSIKCSVSGGSINRGAYFWTWIRQRPGKGLEWIGSIHDTGSYYNPSLKTRVSISGDTSKNLFTLELTSLTAADTAVYYCARGRGYSYGWRYFDSWGQGTLVTVSS VL: SYVLTQPPSVSVSPGQTARITCSGDAFPRQYSYWYQQKAGQPPVLVILKDSERPSGIPARFSGSTSGTTVTLTITGVQAEDEADYYCQSSDSSGNYVVFGGGTKLTVL ; what pKd value has been reported?
9.46

Could you tell me which pKd is on file for ADI-14553 (antibody, V domains shown, IgG) VH: QVQLVQSGTEVKKPGSSVNVSCKAVGGKFTSYNINWVRQAPGQGLEWMGRIIPTLGITYFAQKFQGRLTINADRSTSTAYMDLSSLRSDDTAVYYCARSNPVARDFWSGYSDDSSYAMDVWGQGTTVTVSS VL: ETTLTQSPGTLSLSPGDRVSLSCRASQTVDKNYVAWYQQKPGQAPRLLIYGASKRAADIPDRFSGSGSGADFTLTISRLEPEDFAVYHCQQYGASAFSFGGGTKLEIK ?
7.17

What does the data say about its pKd? Entry: ADI-14546 (antibody, V domains shown, IgG) VH: QVQLVQSGAEVKKPGSSVKVSCTASGGSFSTNSIAWLRQTPREGLEWMGGIIPVFGAAKYAQKFQGRVTISADASTTTAYLELHNLRSEDTAVYYCARGISPRTNSDWNHNYFYYYMDVWGKGTTVTVSS VL: ETTLTQSPGTLSLSPGERATLSCRASQSIFTIYLAWYQQKPGQAPRLLIYSASNRATGIPDRFSGSGSGTDFTLTISSLEPEDFAVYYCHHYGTSPHTFGQGTRLEIK
9.23
